Can you tell me PBM binding z-score for the items I'm about to list?
Tested on: RXRa homodimer (NR concentration 180 nM)
Assay: PBM binding z-score (relative to random genomic background probes); higher = stronger binding; sequences stand for … in GC…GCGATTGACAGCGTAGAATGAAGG
// return just the number, without any unit appended

Q: Provide PBM binding z-score value for the following sequence: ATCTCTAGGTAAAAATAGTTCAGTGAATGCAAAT
Result: 0.292

Q: Tell me measured PBM binding z-score for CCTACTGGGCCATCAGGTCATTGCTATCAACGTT please.
Result: 1.37

Q: Specify measured PBM binding z-score for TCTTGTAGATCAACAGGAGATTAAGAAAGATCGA .
Result: 0.147

Q: Look up and state reported PBM binding z-score for CGAACGAGGGCATTAGTTGATAGCAAATGCCGAT
Result: 0.438

Q: Given the sequence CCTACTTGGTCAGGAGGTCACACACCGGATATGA , write its reported PBM binding z-score.
Result: 5.02

Q: Quick one: give measured PBM binding z-score for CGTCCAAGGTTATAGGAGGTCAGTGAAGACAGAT
Result: 2.87

Q: Quote PBM binding z-score reported for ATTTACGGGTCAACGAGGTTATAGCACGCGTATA please.
Result: 6.99

Q: State its PBM binding z-score for this sequence: GCTAGCAGGCCATTTGGGTCACTGAATGACGGGC
Result: 0.735
